Test system: CHO cells
assay-details: Test of translocation of fluorescence-labeled peptides into CHO cells (FACS and confocal microscopic analysis)
Format: cell-based
measurement-context: 50 μM, 25 μM, 12.5 μM and 6.5 μM
Protocol: Each peptide solution, adjusted to 1 mM, was diluted with a medium to three levels, 100 μM, 50 μM, and 25 μM, and added to cells. Three kinds of cells were used: CHO cells, HeLa cells, and Jurkat cells. After each peptide solution was added, the cells were incubated for 1 hour. After the cells were washed with PBS three times, 100 μL of 0.25% trypsin-1 mM EDTA solution was added, and trypsinization was performed at room temperature for 5 minutes. […]
measured-parameter: intracellular translocation compared with KSH1-1 (in words)

{"substance": "KSH1-15: alanine substitution form of KSH1-1 (an arginine substituted) (RLWMAWYSPTTRRYG; Designed peptide to act as PTD(Protein Transduction Domain))", "reported-value": "decreased"}
{"substance": "KSH1-27: serine and threonine all substituted with alanine (RLWMRWYAPAARRYG; Designed peptide to act as PTD(Protein Transduction Domain))", "reported-value": "decreased slightly"}
{"substance": "KSH1-29: two tryptophans substituted with valine (RLVMRVYSPTTRRYG; Designed peptide to act as PTD(Protein Transduction Domain))", "reported-value": "decreased slightly"}
{"substance": "KSH1-24: two tryptophans substituted with leucine (RLLMRLYSPTTRRYG; Designed peptide to act as PTD(Protein Transduction Domain))", "reported-value": "decreased"}
{"substance": "KSH1-22: alanine substitution form of KSH1-1 (an arginine substituted) (RLWMRWYSPTTARYG; Designed peptide to act as PTD(Protein Transduction Domain))", "reported-value": "decreased"}
